# Test system: TK-10 renal
# assay-comment: NCI tumour cell line growth inhibition, 48 h
Each entry below carries its reported TGI.
observation-type: TGI

O=C(CCc1nnc2s/c(=C\c3ccccc3)c(=O)n12)Nc1cc(Cl)ccc1Cl	> 100 µM
C/C(CN1C(=O)c2ccccc2C1=O)=N\NS(=O)(=O)c1ccccc1	> 100 µM
CC(=O)OCC1C(C(C)OC(C)=O)CCC2C1CCC1(C)C(OC(C)=O)CCC21 (stereo not given)	> 100 µM
O=C(N[C@H](c1ccc(Cl)c(Cl)c1)C1CNC1)c1ccc2cnccc2c1	10.7 µM
C=CCCCCOC1C=CC(OC(C)=O)C(COC(C)=O)O1 (stereo not given)	> 100 µM
Cc1cc(C)nc(NS(=O)(=O)c2ccc(Nc3c4ccccc4nc4c(C(=O)NCCN(C)C)ccc(Cl)c34)cc2)n1	20.3 µM
COc1ccc2nc(-c3ccc(OC(=O)N(C)C)cc3)cn2c1	> 100 µM
C=C1c2nc3ccccc3n2C=C(c2ccc(Cl)cc2)N1c1ccc(OCCN2CCOCC2)cc1	> 100 µM
COc1cccc(Nc2nc(NNC(=O)Cc3ccccc3)nc(NNC(=O)c3ccncc3)n2)c1	> 100 µM
Nc1nnc2nc(CC(=O)/C=C/c3ccccc3)c(=O)[nH]n12	> 100 µM
